# tested_system: T1, human IL-33 (R&D Systems, #3625-IL-010/CF) (human, UniProt O95760 112-270)
# T1 construct: also called hIL-33; huIL-33
# T1 sequence (looked up): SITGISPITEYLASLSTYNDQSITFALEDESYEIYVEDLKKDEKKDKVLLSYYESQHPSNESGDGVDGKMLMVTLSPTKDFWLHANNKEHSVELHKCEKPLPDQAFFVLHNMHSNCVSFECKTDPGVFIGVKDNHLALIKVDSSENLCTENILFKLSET
# experiment_description: SPR Biacore T200, 37 C
pKd: −log10 of the molar value.

[
  {
    "binder": "H4H9633P (antibody, IgG4, V domains shown, also called RG5) VH: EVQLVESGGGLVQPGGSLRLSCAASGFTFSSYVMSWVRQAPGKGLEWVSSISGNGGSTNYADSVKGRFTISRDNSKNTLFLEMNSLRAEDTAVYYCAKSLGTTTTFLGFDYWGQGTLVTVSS VL: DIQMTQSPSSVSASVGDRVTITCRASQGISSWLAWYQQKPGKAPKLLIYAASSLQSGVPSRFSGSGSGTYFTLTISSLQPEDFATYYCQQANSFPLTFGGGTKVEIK",
    "pKd": 9.14
  },
  {
    "binder": "H1M9559N (antibody, IgG1, V domains shown, also called RG1) VH: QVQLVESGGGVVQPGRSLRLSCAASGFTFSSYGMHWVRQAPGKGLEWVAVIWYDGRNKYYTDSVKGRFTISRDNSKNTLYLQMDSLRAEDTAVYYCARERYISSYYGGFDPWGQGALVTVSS VL: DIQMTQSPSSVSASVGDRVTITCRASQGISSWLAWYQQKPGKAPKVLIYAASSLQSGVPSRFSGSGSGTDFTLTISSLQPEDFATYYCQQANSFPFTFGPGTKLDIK",
    "pKd": 8.63
  },
  {
    "binder": "H1M9566N (antibody, IgG1, V domains shown, also called RG2) VH: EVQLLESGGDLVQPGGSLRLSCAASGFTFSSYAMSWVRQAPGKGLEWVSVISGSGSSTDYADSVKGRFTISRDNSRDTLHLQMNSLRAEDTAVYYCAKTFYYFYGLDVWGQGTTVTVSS VL: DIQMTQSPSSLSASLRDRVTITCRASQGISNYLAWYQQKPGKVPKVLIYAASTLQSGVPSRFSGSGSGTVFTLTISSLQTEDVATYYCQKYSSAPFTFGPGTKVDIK",
    "pKd": 8.39
  },
  {
    "binder": "H4H9629P (antibody, IgG4, V domains shown, also called RG4) VH: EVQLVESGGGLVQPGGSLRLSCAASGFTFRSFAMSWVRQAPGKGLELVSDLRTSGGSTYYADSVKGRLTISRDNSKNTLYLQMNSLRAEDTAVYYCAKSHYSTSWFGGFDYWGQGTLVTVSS VL: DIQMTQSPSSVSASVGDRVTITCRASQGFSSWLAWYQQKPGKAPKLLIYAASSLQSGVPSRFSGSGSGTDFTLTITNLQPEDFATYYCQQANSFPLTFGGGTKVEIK",
    "pKd": 9.58
  }
]
